Entry source: paper PMC11451551

Assay: in vivo
Format: in vivo, dog
Details: male, beagle, dog, in vivo, 0.3 mg/kg
Parameter: Cmax (ng/mL)
Supply the numeric figure in ng/mL, leaving out any unit text.

In: Can you look up the measured Cmax of Cc1c(-c2ccc(N3CCc4cccc(C(=O)Nc5nc6ccccc6s5)c4C3)nc2C(=O)O)cnn1CC12CC3(C)CC(C)(C1)CC(OCCNCC[C@H](O)CO)(C3)C2 [compound 11] for me?
Out: 1020
